system: 435261-313-R-J1-PDC tumor spheroid viability; test: Anticancer human tumor 435261-313-R-J1-PDC patient-derived colon adenocarcinoma cell line growth inhibition [PI3K]; settings: second compound 0.1 µM; first compound 3.16 µM; stronger effect = lower value; spheroids with HUVEC and MSC;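 also: spheroids exposed to compounds for 7 days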
# viability, T/C listing for each entry below
The reply should be a number in %, with the unit left off.

CNC(=O)c1ccc(N2C(=S)N(c3ccc(C#N)c(C(F)(F)F)c3)C(=O)C2(C)C)cc1F + Cc1nc(NC(=O)N2CCCC2C(N)=O)sc1-c1ccnc(C(C)(C)C(F)(F)F)c1 : 83.7

### Prompt Enter reported viability, T/C observed with 435261-313-R-J1-PDC tumor spheroid viability for C[C@@H](NC(=O)c1ncnc(N)c1Cl)c1ncc(C(=O)Nc2cc(C(F)(F)F)c(Cl)cn2)s1 + CC(Nc1ncnc2nc[nH]c12)c1cc2cccc(Cl)c2c(=O)n1-c1ccccc1
### Response 147

### Prompt Which viability, T/C is reported with 435261-313-R-J1-PDC tumor spheroid viability for this entry: C#Cc1c(F)ccc2cc(O)cc(-c3ncc4c(N5CC6CCC(C5)N6)nc(OCC56CCCN5CC(F)C6)nc4c3F)c12 (stereo not drawn) + CC(Nc1ccc2c(c1)OCCn1cc(N3C(=O)OCC3C(F)F)nc1-2)C(N)=O ?
### Response 22.6
